target: androgen receptor (Homo sapiens); assay: AR Antagonist Cell Assay (MMTV-luciferase reporter, DHT-stimulated); settings: MDA-MB453-MMTV clone 54-19 cells, inhibition of induction by 100 pM DHT, 17 hr
Please go through the items and note down their IC50.
Report the figure in µM without appending any unit label.

*Q* Retrieve IC50 measured for O=c1cc(C(F)(F)F)c2cc(Cc3ccc(S(=O)(=O)N4CCCc5ccccc54)cc3)ccc2[nH]1 and print it.
*A* 2

*Q* Retrieve IC50 measured for CC1CN(S(=O)(=O)c2ccc(Cc3ccc4oc(=O)cc(C(F)(F)F)c4c3)cc2)CC(C)O1 (stereo not shown) and print it.
*A* 0.52

*Q* Retrieve IC50 measured for O=c1cc(C(F)(F)F)c2cc(Cc3ccc(S(=O)(=O)N4CCCc5ccccc54)cc3)ccc2o1 and print it.
*A* 5.9

###

biological target: androgen receptor (Homo sapiens, UniProt P10275); assay: AR Antagonist Cell Assay (MMTV-luciferase reporter, DHT-stimulated); conditions: MDA-MB453-MMTV clone 54-19 cells, inhibition of induction by 100 pM DHT, 17 hr
Sequence (P10275 whole entry Q868H, form open): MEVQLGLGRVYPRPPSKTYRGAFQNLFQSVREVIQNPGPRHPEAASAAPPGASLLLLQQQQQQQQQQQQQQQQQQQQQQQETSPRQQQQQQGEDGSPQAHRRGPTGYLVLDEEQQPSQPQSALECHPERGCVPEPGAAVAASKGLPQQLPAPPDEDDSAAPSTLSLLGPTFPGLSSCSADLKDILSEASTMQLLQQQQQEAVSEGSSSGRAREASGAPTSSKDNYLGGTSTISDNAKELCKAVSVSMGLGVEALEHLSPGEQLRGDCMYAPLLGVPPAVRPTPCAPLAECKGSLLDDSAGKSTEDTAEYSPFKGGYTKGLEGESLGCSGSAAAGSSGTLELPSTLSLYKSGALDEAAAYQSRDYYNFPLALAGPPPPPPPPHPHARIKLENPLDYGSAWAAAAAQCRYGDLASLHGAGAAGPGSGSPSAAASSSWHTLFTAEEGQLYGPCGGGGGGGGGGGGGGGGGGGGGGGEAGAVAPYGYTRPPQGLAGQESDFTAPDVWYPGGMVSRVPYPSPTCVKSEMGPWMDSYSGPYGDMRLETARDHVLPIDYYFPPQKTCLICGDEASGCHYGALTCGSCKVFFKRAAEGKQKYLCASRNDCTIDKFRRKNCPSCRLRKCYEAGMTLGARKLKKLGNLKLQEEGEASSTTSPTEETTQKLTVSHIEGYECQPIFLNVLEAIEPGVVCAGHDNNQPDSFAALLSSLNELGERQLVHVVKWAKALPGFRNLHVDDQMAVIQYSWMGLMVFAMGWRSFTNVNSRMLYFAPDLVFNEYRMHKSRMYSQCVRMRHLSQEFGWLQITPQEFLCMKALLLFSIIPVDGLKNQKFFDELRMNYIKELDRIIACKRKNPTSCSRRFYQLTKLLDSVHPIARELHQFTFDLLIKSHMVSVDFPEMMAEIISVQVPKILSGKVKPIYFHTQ
property: IC50

*Q* Retrieve IC50 measured for O=C(CN1CCN(S(=O)(=O)c2ccc(Cc3ccc4[nH]c(=O)cc(C(F)(F)F)c4c3)cc2)CC1)N1CCCC1 [Example 13] and print it.
*A* > 10 µM

*Q* Retrieve IC50 measured for O=c1cc(C(F)(F)F)c2cc(Cc3ccc(S(=O)(=O)N4CCC(N5CCCC5)CC4)cc3)ccc2o1 [Example 30] and print it.
*A* > 10 µM

*Q* Retrieve IC50 measured for O=c1cc(C(F)(F)F)c2cc(Cc3ccc(S(=O)(=O)N4CCCC5CCCCC54)cc3)ccc2[nH]1 (stereo not drawn) [Example 19] and print it.
*A* > 10 µM

###

Please go through the items and note down their IC50.
target: UniProtKB P10275; test: AR Antagonist Cell Assay (MMTV-luciferase reporter, DHT-stimulated); details: MDA-MB453-MMTV clone 54-19 cells, inhibition of induction by 100 pM DHT, 17 hr

*Q* Retrieve IC50 measured for CCOC(=O)C1CCCN(S(=O)(=O)c2ccc(Cc3ccc4[nH]c(=O)cc(C(F)(F)F)c4c3)cc2)C1 (stereo not drawn) and print it.
*A* > 10 µM

*Q* Retrieve IC50 measured for CC1CCCCN1S(=O)(=O)c1ccc(Cc2ccc3[nH]c(=O)cc(C(F)(F)F)c3c2)cc1 (stereo not drawn) and print it.
*A* > 10 µM

*Q* Retrieve IC50 measured for O=c1cc(C(F)(F)F)c2cc(Cc3ccc(S(=O)(=O)N4CCC(O)CC4)cc3)ccc2o1 and print it.
*A* > 10 µM
